T/C values by entry
System: CD2F1 mice, L1210 leukemia ip, survival T/C
measurement_protocol: NCI In Vivo Anticancer Drug Screen. Data for tumor model L1210 Leukemia (intraperitoneal) in CD2F1 (CDF1) mice
protocol_conditions: endpoint: mean survival time; dose: 100.0 mg/kg/injection; schedule: Q01DX009 (ip); vehicle: saline with Tween-80; higher = longer survival
Inconclusive results and toxic doses are left out.

A selection of reference data follows.
1. CCC1(CC)C=CCC/C1=N\NS(=O)(=O)c1ccc(C)cc1 | 90 % of control
2. COc1ccccc1NC(=O)Nc1ccc(C(=O)OCC(C)C)cc1 | 89 % of control
3. COC(=O)C(C(=O)OC)=C(C(=O)OC)C(=O)OC | 96 % of control
4. O=S(=O)(CCl)OCCCl | 86 % of control

// returns reported T/C for input c1ccc2c(c1)[nH]c1ccncc12
87 % of control

Fill in: T/C of O=C1C(=C(C(F)(F)F)C(F)(F)F)CCc2ccc([N+](=O)[O-])cc21 is ___
102 % of control

Param item = CC(C)CCCC(C)C1CCC2C3CC=C4CC(OC(=O)CCC(C)C)CC(O)C4(C)C3CCC12C (configuration not stated) ; retrieve measured T/C.
96 % of control

Entry O=C(OC1C=CC2CCC1C2)c1ccc([N+](=O)[O-])cc1 (configuration not stated) : reported T/C = ?
94 % of control

Which T/C value is on record for COC(=O)c1cccc(C)c1O ?
102 % of control

If you can, please state the reported T/C value of NC(=S)c1cccc(OCCOc2cccc3ccccc23)c1 .
88 % of control

// query T/C value for entry CCOC(=O)/C(=C\c1ccccc1Cl)C(C)=O
103 % of control

Quick check: T/C of COC(OC)c1ccc(Cl)nc1 ?
96 % of control
